# measured_on: Innovin, lyophilized recombinant human tissue factor combined with phospholipids (human, UniProt P13726 33-295, limits assumed)
# method_summary: cell-based or functional assay; note: test concentration or dose not given here
Overview of recorded T½ Max (seconds), coagulation of human plasma for various binders
value_kind: T½ Max (seconds), coagulation of human plasma

{"columns": ["binder", "unit_of_measurement", "numeric_readout"],
 "data": [
  ["M12 (antibody, V domains shown, complete MAb; FR4 is its own entry; also called H15/L5) VH: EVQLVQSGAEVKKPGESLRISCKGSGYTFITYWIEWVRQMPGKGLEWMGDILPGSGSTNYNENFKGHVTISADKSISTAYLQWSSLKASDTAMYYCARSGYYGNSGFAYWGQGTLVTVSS VL: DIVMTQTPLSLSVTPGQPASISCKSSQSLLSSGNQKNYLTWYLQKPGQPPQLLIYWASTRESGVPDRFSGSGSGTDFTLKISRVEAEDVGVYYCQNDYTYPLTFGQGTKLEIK", "s", 197],
  ["M1645 (antibody, V domains shown, complete MAb; FR4 is its own entry; also called H22/L283) VH: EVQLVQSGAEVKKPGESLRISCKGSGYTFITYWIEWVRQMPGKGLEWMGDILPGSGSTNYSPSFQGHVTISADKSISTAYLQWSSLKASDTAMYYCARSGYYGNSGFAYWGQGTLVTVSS VL: DIVMTQTPLSLPVTPGEPASISCKSSQSLLYTSNQKNYLTWYLQKPGQSPQLLIYWASTRESGVPDRFSGSGSGTDFTLKISRVEAEDVGVYYCQNDDYWPLTFGQGTKLEIK", "s", 154],
  ["M1644 (antibody, V domains shown, complete MAb; FR4 is its own entry; also called H22/L225) VH: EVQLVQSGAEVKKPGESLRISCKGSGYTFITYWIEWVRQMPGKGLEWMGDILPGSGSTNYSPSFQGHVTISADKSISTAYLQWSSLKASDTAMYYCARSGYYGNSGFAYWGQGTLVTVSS VL: DIVMTQTPLSLPVTPGEPASISCKSSQSLLFRPTQKNYLTWYLQKPGQSPQLLIYWASTRESGVPDRFSGSGSGTDFTLKISRVEAEDVGVYYCQNDDSYPLTFGQGTKLEIK", "s", 150],
  ["M1587 (antibody, V domains shown) VH: EVQLVQSGAEVKKPGESLRISCKGSGYTFIPYWIEWVRQMPGKGLEWMGDILPGSGFTTYSPSFQGHVTISADKSISTAYLQWSSLKASDTAMYYCARSGYYGNSGFAYWGQGTLVTVSS VL: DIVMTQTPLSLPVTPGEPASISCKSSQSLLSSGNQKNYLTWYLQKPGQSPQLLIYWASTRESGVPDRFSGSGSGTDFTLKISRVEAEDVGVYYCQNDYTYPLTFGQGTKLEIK", "s", 202],
  ["M19 (antibody, V domains shown, complete MAb; FR4 is its own entry; also called H16/L5) VH: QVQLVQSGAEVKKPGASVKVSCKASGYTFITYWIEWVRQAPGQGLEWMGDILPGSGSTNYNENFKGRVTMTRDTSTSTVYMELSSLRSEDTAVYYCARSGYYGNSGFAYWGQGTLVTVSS VL: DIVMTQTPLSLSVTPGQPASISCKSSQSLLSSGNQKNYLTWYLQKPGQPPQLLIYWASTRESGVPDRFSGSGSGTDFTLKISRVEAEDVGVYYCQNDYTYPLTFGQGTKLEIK", "s", 199]
]}
